Where do the numbers come from? From the RNAGym collection of RNA variant scans (doi:10.7554/elife.80360).

B1: CPEB3 Ribozyme (parent)
chain: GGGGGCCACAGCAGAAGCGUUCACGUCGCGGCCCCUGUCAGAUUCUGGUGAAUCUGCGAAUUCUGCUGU

variants of: B1; test: self-cleavage, relative activity (ratio to wild type); higher = more cleavage; co-transcriptional
Property name: self-cleavage
Number only, no unit.

See these solved cases before continuing.
GGGGGCCACAGCAGAAUCGUUCACGUCGCGGCCCCUGUCAGAUUCUGGUGAAUAUGCGAAUUCUGCUGU [G17U C54A]	0.188
GGGGGCCACAGCAGAAGCGUUCACGUCGCGCCCCCUGUCAGAUUCUGGUGAAUCUGCGAAUUCUGCUGA [G31C U69A]	0.381
GGGGCCCACAGCAGAAGCGUUCACGUCGCGGCCCCUGUCAGAUUCUGGUGAAUCUUCGAAUUCUGCUGU [G5C G56U]	0.131

Look up and state reported self-cleavage for GGGGGACACAGCAGAAGCGUUCACGUCGCGGCCCCUGUCAGAUUCUGGAGAAUCUGCGAAUUCUGCUGU [C6A U49A]
0.641

Look up and state reported self-cleavage for GGGGGCCACGGCGGAAGCGUUCACGUCGCGGCCCCUGUCAGAUUCUGGUGAAUCUGCGAAUUCUGCUGU [A10G A13G]
0.233

Look up and state reported self-cleavage for GGGGGCCACAGCCGAAGCGUUCACGUCGCGGCCCCUGUCAGAUUCGGGUGAAUCUGCGAAUUCUGCUGU [A13C U46G]
0.885

Look up and state reported self-cleavage for GGGGGCCACAGCAGAAGCGUUCACGUCGCGGCCCCUGUAAGAUUCUGGUGAAUCUGCGAAAUCUGCUGU [C39A U61A]
0.601

Look up and state reported self-cleavage for GGGGGACACAGCAGAAGCGUUCACGUCGCGGCACCUGUCAGAUUCUGGUGAAUCUGCGAAUUCUGCUGU [C6A C33A]
0.127
